# System: HEPG2
# PROTOCOL SUMMARY: Euclidean distance of Cell Painting phenotypic profile (signed KS, 77 features) to DMSO centroid (dimensionless distance); 5 or 10 uM (library dependent); higher = stronger phenotypic change vs DMSO (phenoactivity)
# TEST CONTEXT: 48 h
Where a name gives a salt, the structure may show the parent alone.
// reported Euclidean distance per item

{"columns": ["COMPOUND", "SUBJECT OF TEST", "Euclidean distance"],
 "data": [
  ["N=C(N)NS(=O)(=O)c1ccc(N)cc1", "HEPG2", 0.524],
  ["CN(C)CCCN1c2ccccc2CCc2ccc(Cl)cc21 [Clomipramine HCl]", "HEPG2", 1.92],
  ["CN(Cc1cc(Br)cc(Br)c1N)C1CCCCC1", "HEPG2", 0.566],
  ["O=C1c2ccc(Nc3ccc(F)cc3F)cc2CCc2ccc(OC[C@H](O)CO)cc21 [Skepinone-L]", "HEPG2", 0.828],
  ["C=CC[C@@H]1/C=C(\\C)C[C@H](C)C[C@H](OC)[C@H]2O[C@@](O)(C(=O)C(=O)N3CCCC[C@H]3C(=O)O[C@H](/C(C)=C/[C@@H]3CC[C@@H](O)[C@H](OC)C3)[C@H](C)[C@@H](O)CC1=O)[C@H](C)C[C@@H]2OC", "HEPG2", 0.59],
  ["N#Cc1c(Oc2ccc(F)c(NC(=O)Cc3cccc(C(F)(F)F)c3)c2)ccc2nc(NC(=O)C3CC3)sc12", "HEPG2", 1.22],
  ["Cc1ncc([N+](=O)[O-])n1CC(C)O (stereo not given)", "HEPG2", 1.12],
  ["CCN(CC)CCNC(=O)c1c(C)[nH]c(/C=C2\\C(=O)Nc3ccc(F)cc32)c1C", "HEPG2", 3.3],
  ["O=C1OC2(c3ccc(O)cc3Oc3cc(O)ccc32)c2ccccc21", "HEPG2", 1.12],
  ["CN1CCC(=C2c3ccccc3CCc3sccc32)CC1 [Pizotifen Malate]", "HEPG2", 1.73],
  ["CCCCCCCCCCCCCCCCOP(=O)([O-])OCC[N+](C)(C)C", "HEPG2", 1.15],
  ["CC[C@@H]1/C=C(\\C)C[C@H](C)C[C@H](OC)[C@H]2O[C@@](O)(C(=O)C(=O)N3CCCC[C@H]3C(=O)O[C@H](/C(C)=C/[C@@H]3CC[C@@H](O)[C@H](OC)C3)[C@H](C)[C@@H](O)CC1=O)[C@H](C)C[C@@H]2OC", "HEPG2", 0.58],
  ["O=c1ccc2ccc(OCCCCN3CCN(c4cccc5sccc45)CC3)cc2[nH]1", "HEPG2", 2.28],
  ["Cc1ccccc1N1C(=O)c2cc(S(N)(=O)=O)c(Cl)cc2NC1C (stereo not given)", "HEPG2", 0.715],
  ["Nc1ccc(S(=O)(=O)c2ccc(N)cc2)cc1", "HEPG2", 0.497],
  ["CC(C)C(=O)Nc1ccc([N+](=O)[O-])c(C(F)(F)F)c1 [Flutamide]", "HEPG2", 0.723],
  ["c1ccc2c(c1)CCCC2C1=NCCN1 (stereo not given) [Tetrahydrozoline HCl]", "HEPG2", 0.601],
  ["Cc1coc2c1C(=O)C(=O)c1c-2ccc2c(C)cccc12", "HEPG2", 1.25],
  ["O=c1c(-c2ccc(O)cc2)coc2cc(O)cc(O)c12", "HEPG2", 0.498],
  ["c1ccc2c(c1)CCCC2C1=NCCN1 (stereo not given) [Tetryzoline]", "HEPG2", 0.572]
]}
